Conditions: in sec-butanol, 316.25 K
Measurement name: solubility (mole fraction)
Answer with a number only.

Input line: Requested read-out: solubility (mole fraction). Entry: `Cc1cc(C(=O)O)ccc1[N+](=O)[O-]`
Output line: 0.0243

* * *

Conditions: in isobutanol, 328.95 K
Measurement name: solubility (mole fraction)
Answer with a number only.

Input line: Requested read-out: solubility (mole fraction). Entry: `Cc1cc(C(=O)O)ccc1[N+](=O)[O-]`
Output line: 0.0235

* * *

Conditions: in n-butanol, 324.35 K
Measurement name: solubility (mole fraction)
Answer with a number only.

Input line: Requested read-out: solubility (mole fraction). Entry: `Cc1cc(C(=O)O)ccc1[N+](=O)[O-]`
Output line: 0.026
